Quick reference for mass density among some molecules
Condition Parameters: 299.16 K; 100 kPa; Liquid; Vibrating tube method
Form entry: value (kg/m3) — number only.

CC[N+](C)(CCO)CCO.O=S(=O)([N-]S(=O)(=O)C(F)(F)F)C(F)(F)F
1514.4
CC[N+](C)(C)CCOC.O=S(=O)([N-]S(=O)(=O)C(F)(F)F)C(F)(F)F
1430
CC[N+](C)(C)CCCO.O=S(=O)([N-]S(=O)(=O)C(F)(F)F)C(F)(F)F
1462.5
CCCC[N+](C)(C)CC.O=S(=O)([N-]S(=O)(=O)C(F)(F)F)C(F)(F)F
1370.8
C[N+](CCO)(CCO)CCO.O=S(=O)([N-]S(=O)(=O)C(F)(F)F)C(F)(F)F
1565.9
CCCC[N+](CCO)(CCO)CCO.O=S(=O)([N-]S(=O)(=O)C(F)(F)F)C(F)(F)F
1455.7

Could you now consider this next molecule?
[ask] I'd like to know its mass density. The molecule in question is CC[N+](CCO)(CCO)CCO.O=S(=O)([N-]S(=O)(=O)C(F)(F)F)C(F)(F)F
[reply] 1528.9
